Biological target: delF508-CFTR (Homo sapiens, UniProt P13569, DEL508-508)
Construct: expressed in transfected cells
Sequence (P13569 with tags, fused parts or gaps DEL508-508): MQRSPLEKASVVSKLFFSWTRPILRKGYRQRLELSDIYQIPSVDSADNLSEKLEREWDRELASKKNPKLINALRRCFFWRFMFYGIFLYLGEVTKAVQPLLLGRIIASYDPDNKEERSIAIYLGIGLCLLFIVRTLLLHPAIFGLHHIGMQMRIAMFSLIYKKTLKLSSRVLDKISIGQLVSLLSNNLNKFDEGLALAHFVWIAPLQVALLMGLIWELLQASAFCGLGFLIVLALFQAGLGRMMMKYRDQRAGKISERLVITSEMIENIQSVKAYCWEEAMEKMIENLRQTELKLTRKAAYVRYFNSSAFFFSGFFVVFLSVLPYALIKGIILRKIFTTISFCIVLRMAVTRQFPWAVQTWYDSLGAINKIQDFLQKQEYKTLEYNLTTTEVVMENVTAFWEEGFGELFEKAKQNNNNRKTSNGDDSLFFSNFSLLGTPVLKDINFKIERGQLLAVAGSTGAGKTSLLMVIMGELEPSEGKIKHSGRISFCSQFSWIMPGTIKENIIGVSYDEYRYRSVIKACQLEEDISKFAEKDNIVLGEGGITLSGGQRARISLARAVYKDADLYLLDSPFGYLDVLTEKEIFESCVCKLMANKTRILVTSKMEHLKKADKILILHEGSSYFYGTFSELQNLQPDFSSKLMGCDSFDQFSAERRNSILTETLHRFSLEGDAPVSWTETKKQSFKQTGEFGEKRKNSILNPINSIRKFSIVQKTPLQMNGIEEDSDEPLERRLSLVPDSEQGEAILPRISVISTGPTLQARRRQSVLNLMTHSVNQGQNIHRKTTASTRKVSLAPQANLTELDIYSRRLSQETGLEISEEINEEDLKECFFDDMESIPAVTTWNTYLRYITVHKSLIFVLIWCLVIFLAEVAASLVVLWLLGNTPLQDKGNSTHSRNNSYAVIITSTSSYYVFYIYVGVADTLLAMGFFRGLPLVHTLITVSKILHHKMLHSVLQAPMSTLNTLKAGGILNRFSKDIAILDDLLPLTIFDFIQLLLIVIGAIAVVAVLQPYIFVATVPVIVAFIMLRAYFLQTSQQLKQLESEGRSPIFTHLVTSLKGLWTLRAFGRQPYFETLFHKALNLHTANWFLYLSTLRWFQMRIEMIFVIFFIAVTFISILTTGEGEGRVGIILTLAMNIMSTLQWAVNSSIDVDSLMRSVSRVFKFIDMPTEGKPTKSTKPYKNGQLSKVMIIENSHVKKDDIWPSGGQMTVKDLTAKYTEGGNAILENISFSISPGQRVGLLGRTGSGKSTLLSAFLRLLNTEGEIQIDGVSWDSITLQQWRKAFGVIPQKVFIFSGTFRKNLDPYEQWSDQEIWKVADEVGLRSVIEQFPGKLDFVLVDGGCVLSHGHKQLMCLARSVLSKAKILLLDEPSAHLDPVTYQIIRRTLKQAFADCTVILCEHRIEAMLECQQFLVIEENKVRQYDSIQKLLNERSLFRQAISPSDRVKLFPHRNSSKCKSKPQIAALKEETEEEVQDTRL
Assay: Measurement of delF508-CFTR-HRP surface expression in CFBE41o- cells
Format: cell-based
Conditions: HRP-tagged delF508-CFTR surface expression, CFBE41o- cells, 24 h with compound, 10-point curve, highest concentration 10 μM
pEC50: −log10 of the molar value.
Property Label: pEC50

I. O=C(O)CCCN1CCCCc2ccccc2-c2nc(ccc2C(F)(F)F)NS(=O)(=O)c2cccc1n2 [Compound 90]
II. CC1(C)O[C@@H](CO)[C@H](CN2CCCCCc3ccccc3-c3nc(ccc3C(F)(F)F)NS(=O)(=O)c3cccc2n3)O1 [Compound 34]
Qu. // which entry has the larger pEC50 value, I or II ? Returns: label corresponding to the selected item.
Ans. II

I. O=S1(=O)Nc2ccc(C(F)(F)F)c(n2)-c2ccccc2CCCCCN(CCCCCO)c2cccc1n2 [Compound 15]
II. O=S1(=O)Nc2ccc(C(F)(F)F)c(n2)-c2ccccc2CCCCCN(CCCO)c2cccc1n2 [Compound 29]
III. O=C(O)CNCCN1CCCCCc2ccccc2-c2nc(ccc2C(F)(F)F)NS(=O)(=O)c2cccc1n2 [Compound 127]
IV. O=C(O)CCN1CCCCCc2ccccc2-c2nc(ccc2C(F)(F)F)NS(=O)(=O)c2cccc1n2 [Compound 92]
Qu. hey, can you rank those molecules up there by pEC50? biggest number first please Please list the labels according to the requested order.
Ans. II, I, IV, III
(II: 6.84, I: 6.52, IV: 6.16, III: 5.44)

P. O=S1(=O)Nc2ccc(C(F)(F)F)c(n2)-c2ccccc2CCCCCN(CCOCCCO)c2cccc1n2 [Compound 14]
Q. O=C(O)CCN1CCCCCc2ccccc2-c2cccc(n2)NS(=O)(=O)c2cccc1n2 [Compound 93]
R. O=S1(=O)Nc2ccc(C(F)(F)F)c(n2)-c2ccccc2CCCOCCNc2cccc1n2 [Compound 119]
S. Cc1ccnc2c1-c1nc(ccc1Cl)NS(=O)(=O)c1cccc(n1)NCCCCCN2 [Compound 106]
Qu. Please put the entries in order of rising pEC50. Please list the labels according to the requested order.
Ans. Q, S, R, P
(Q: 5.58, S: 5.85, R: 6.06, P: 6.48)

A. O=S1(=O)Nc2ccc(C(F)(F)F)c(n2)-c2ccccc2CCCCCCCN(CCCO)c2cccc1n2 [Compound 39]
B. O=CCCCN1CCCCCc2ccccc2-c2nc(ccc2C(F)(F)F)NS(=O)(=O)c2cccc1n2 [Compound 73]
Qu. Hey, between A and B which has a smaller measured pEC50? Returns: label corresponding to the selected item.
Ans. B

1. O=S1(=O)Nc2ccc(C(F)(F)F)c(n2)-c2ccccc2CCCCCCCN(CCCCO)c2cccc1n2 [Compound 40]
2. COC(=O)CNCCN1CCCCCc2ccccc2-c2nc(ccc2C(F)(F)F)NS(=O)(=O)c2cccc1n2 [Compound 126]
Qu. Hey, between 1 and 2 which has a smaller measured pEC50? Returns: label corresponding to the selected item.
Ans. 2
